Target: T1, human NMI (N-myc Interacting protein), recombinant protein (human, UniProt Q13287 1-307, limits assumed)
T1 construct: Gene ID: 9111; also called hNMI; antigen
T1 sequence (looked up): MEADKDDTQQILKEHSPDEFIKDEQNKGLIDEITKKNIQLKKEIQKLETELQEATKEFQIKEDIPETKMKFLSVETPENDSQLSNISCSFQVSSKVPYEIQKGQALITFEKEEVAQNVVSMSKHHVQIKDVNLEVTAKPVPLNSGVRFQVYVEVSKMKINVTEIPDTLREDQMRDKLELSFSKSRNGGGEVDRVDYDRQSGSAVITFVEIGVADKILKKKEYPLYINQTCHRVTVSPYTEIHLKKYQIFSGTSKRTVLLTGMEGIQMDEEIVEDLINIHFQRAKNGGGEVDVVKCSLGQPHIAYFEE
Test: ELISA EC50 against parent 240B10-1
MEASUREMENT NAME: Fold decrease in affinity

Bench note: what Fold decrease in affinity did 240B10-1 mutant N30E (VL) (antibody, V domains shown) VH: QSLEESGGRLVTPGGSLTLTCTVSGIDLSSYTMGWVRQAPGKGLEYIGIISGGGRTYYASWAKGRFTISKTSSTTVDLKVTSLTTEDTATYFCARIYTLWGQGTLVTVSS VL: QVLTQTLASVSAAVGGTVTINCQSSQSVYENDYLAWFQQKSGQPPKQLIHSASKLASGVPSRFKGSGSGTQFTLTINDVQCDDAATYYCLGGYDCYSADCNVFGGGTEVVVK show?
> 500 fold

Suppose we examine the binder 240B10-1 mutant S30D (VH) (antibody, V domains shown) VH: QSLEESGGRLVTPGGSLTLTCTVSGIDLSDYTMGWVRQAPGKGLEYIGIISGGGRTYYASWAKGRFTISKTSSTTVDLKVTSLTTEDTATYFCARIYTLWGQGTLVTVSS VL: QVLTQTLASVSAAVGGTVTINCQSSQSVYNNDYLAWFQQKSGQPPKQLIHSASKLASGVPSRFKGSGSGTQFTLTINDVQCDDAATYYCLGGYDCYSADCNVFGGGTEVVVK ; what Fold decrease in affinity value has been reported?
> 500 fold

Any idea what Fold decrease in affinity was measured for 240B10-1 mutant N30T (VL) (antibody, V domains shown) VH: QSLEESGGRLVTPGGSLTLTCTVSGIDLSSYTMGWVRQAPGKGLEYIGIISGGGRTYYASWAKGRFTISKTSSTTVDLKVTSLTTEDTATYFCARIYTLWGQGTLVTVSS VL: QVLTQTLASVSAAVGGTVTINCQSSQSVYTNDYLAWFQQKSGQPPKQLIHSASKLASGVPSRFKGSGSGTQFTLTINDVQCDDAATYYCLGGYDCYSADCNVFGGGTEVVVK ?
> 500 fold
